All values here come from PubChem BioAssay AID624125.

Target: Muscarinic acetylcholine receptor M4 (Homo sapiens) (UniProt P08173)
Sequence (P08173 whole entry, looked up): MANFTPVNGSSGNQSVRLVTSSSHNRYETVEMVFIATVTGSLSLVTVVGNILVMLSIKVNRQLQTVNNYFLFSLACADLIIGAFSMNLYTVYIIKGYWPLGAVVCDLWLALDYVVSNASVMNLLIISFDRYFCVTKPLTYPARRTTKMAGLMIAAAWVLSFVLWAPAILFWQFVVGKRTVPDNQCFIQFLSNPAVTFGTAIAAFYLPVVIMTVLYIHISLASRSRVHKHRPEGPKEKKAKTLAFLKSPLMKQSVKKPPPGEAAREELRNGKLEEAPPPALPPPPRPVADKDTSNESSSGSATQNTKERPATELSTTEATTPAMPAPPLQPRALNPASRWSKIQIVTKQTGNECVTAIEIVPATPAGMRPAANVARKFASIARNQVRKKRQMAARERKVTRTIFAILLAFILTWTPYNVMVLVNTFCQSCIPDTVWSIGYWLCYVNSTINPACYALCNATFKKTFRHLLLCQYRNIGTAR
Assay: human M4 muscarinic receptor antagonists, primary screen, CHO cells, Fluo-8 calcium fluorescence (AID 624125);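 note: 0% = acetylcholine EC80 with DMSO and 100% = DMSO without agonist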
Conditions: CHO-hM4 cells, ACh EC80, Fluo-8 calcium fluorescence; at 3 µM
Hit rate of the full screen: of about 360,000 compounds, about 2,600 (0.72%) were called active.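 Rule for the calls: active = inhibition above its plate's cutoff, the mean inhibition of sample wells plus 3 SD (cut at about 27% in these data); inactive = the rest.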 The entries come from a sample that favours actives as a whole.
Could you please pick one outcome from this set? yes (1) for active, no (0) for inactive

Here's what some known entries look like.
CCOc1cc(NC(=O)c2ccccc2C(=O)O)c(OCC)cc1NC(=O)c1ccccc1F    no (0)
COc1ccc(C(=O)NC2CCCc3c2cnn3-c2cccc(C)c2C)c(OC)n1 (stereo unspecified)    yes (1)
CC(O)C(NS(=O)(=O)c1ccc(Cl)cc1)C(=O)OCc1cc([N+](=O)[O-])cc2c1OCOC2 (stereo unspecified)    no (0)

Req: Recorded call for COc1ccc([C@H]2C[C@@H](n3cc(COC(=O)c4ccccc4)nn3)[C@H](O)CN2C(=O)c2cccs2)cc1 ?
Resp: no (0)

Req: What do you have for CC1CCc2c(sc3c2C2=NS(=O)(=O)CCN2C=N3)C1 (stereo unspecified) ?
Resp: no (0)

Req: Next compound: Cc1c(C(=O)Nc2ccccc2)sc2nc3n(c(=O)c12)CCCCC3
Resp: no (0)

Req: Entry to check: CC(NCCO)C(=O)C12CC3CC(CC(C3)C1)C2 (stereo unspecified)
Resp: no (0)

Req: Query O=C(CSc1nc2ccccc2o1)N1c2ccccc2Sc2ccc(Cl)cc21 next
Resp: no (0)

Req: Another compound to check: COc1ccc(C(=O)NC2CC(C)(C)Cc3c2cnn3-c2ccccc2)c(OC)c1 (stereo unspecified)
Resp: no (0)

Req: Okay, and Cn1nccc1C(=O)NC1CCCc2c1cnn2-c1ccc(F)cc1F (stereo unspecified) ?
Resp: no (0)

---

Biological target: Muscarinic acetylcholine receptor M4 (Homo sapiens) (UniProt P08173)
Experiment: human M4 muscarinic receptor antagonists, primary screen, CHO cells, Fluo-8 calcium fluorescence (AID 624125);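 note: 0% = acetylcholine EC80 with DMSO and 100% = DMSO without agonist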
Details: CHO-hM4 cells, ACh EC80, Fluo-8 calcium fluorescence; at 3 µM
Among all 360,000 compounds or so, about 2,600 (0.72%) were called active.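 How the source made its calls: active means inhibition above its plate's cutoff, the mean inhibition of sample wells plus 3 SD (cut at about 27% in these data); inactive means the rest.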 Many of the other results were omitted from the sample, so actives are more common in it than they were.
Select the correct class. Options are TRUE (active), FALSE (inactive) and nothing else.

The following compounds have reported results that may help.
CN(Cc1nc(-c2cnccn2)no1)Cc1n[nH]c2c1CCCCC2    TRUE
CCn1ccnc1CN(C)Cc1nc(-c2ccc3c(c2)OCO3)no1    FALSE
Cc1cc2c(cc1C)N(Cc1ccccc1)C1=NCCCN12    FALSE
COc1ccc(CN2CC(C(=O)NCCc3ccc(Cl)cc3)CC2=O)cc1 (stereo unspecified)    FALSE
Cn1c(CCC(=O)Nc2ccccc2F)nnc1SCC(=O)Nc1ccccc1Cl    FALSE

Req: Which outcome was assigned to CC(=O)c1c(C)[nH]c(C(=O)COC(=O)c2cccc(S(=O)(=O)N(C)c3ccccc3)c2)c1C in this test?
Resp: TRUE

Req: // next record Cc1ccc(S(=O)(=O)NC[C@H]2O[C@@H](n3cnc4c(N)ncnc43)[C@H](O)[C@@H]2O)s1
Resp: FALSE

Req: And CCC(C(=O)OCCN(CC)CC)c1ccccc1 (stereo unspecified) ?
Resp: TRUE

Req: Let us now turn to COC(CCN(C)C)(c1ccccc1)c1ccccc1
Resp: FALSE

Req: What about this compound? CCCC(C(=O)OCCN(CC)CC)(c1ccccc1)c1ccccc1
Resp: TRUE

Req: Note, next up: CCN(CC)CCOC(=O)c1ccc(NC(=O)CNC(=O)c2ccccc2)cc1
Resp: FALSE
